- Test system: Escherichia coli
- measurement notes: Growth inhibition of Escherichia coli at 0.39 to 100 ug/ml
recorded endpoint: growth inhibition (GI)

>>> df
                          query_smiles  endpoint_result
0             O=C(O)c1ccc(-c2ccco2)cn1            Toxic
1             COC(=O)c1ccc(OCC2CC2)cn1        Non-Toxic
2  COc1ccc2nccc(-c3ccc(C(=O)O)nc3)c2c1        Non-Toxic
3   Cc1cc(-c2ccc(C(=O)O)nc2)c2ccccc2n1        Non-Toxic
4    COC(=O)c1ccc(OCC(=O)Nc2ccccc2)cn1        Non-Toxic

Exercise: Given "O=C(COc1ccc(C(=O)O)nc1)Nc1ccccc1" , state its recorded growth inhibition (GI).
Solution: Non-Toxic

Exercise: Requested read-out: growth inhibition (GI). Entry: "O=C(O)c1ccc(-c2nccs2)cn1"
Solution: Non-Toxic

Exercise: Which measured growth inhibition (GI) value corresponds to "CCOC(=O)c1ccc(-c2ccccc2)cn1" ?
Solution: Non-Toxic

Exercise: Which measured growth inhibition (GI) value corresponds to "CCCOc1ccc(C(=O)OC)nc1" ?
Solution: Non-Toxic

Exercise: What measured growth inhibition (GI) goes with "COC(=O)c1ccc(-c2ccnc3ccccc23)cn1" ?
Solution: Non-Toxic

Exercise: Consider the compound shown here: "CCCOc1ccc(C(=O)O)nc1" What is its recorded growth inhibition (GI)?
Solution: Toxic

Exercise: Record request: growth inhibition (GI) value, item "O=C(O)c1ccc(OCC2CC2)cn1"
Solution: Toxic

Exercise: Can you share its growth inhibition (GI)? I mean this compound: "COC(=O)c1ccc(-c2cccc(OC)n2)cn1"
Solution: Non-Toxic

Exercise: Can you share its growth inhibition (GI)? I mean this compound: "CCCCc1ccc(C(=O)OCC)nc1"
Solution: Non-Toxic
